SYSTEM_TESTED: hDGAT1 (Homo sapiens)
Construct: host or cells: Sf9 insect cells (baculovirus); microsomal preparation
Sequence (O75907 1-488): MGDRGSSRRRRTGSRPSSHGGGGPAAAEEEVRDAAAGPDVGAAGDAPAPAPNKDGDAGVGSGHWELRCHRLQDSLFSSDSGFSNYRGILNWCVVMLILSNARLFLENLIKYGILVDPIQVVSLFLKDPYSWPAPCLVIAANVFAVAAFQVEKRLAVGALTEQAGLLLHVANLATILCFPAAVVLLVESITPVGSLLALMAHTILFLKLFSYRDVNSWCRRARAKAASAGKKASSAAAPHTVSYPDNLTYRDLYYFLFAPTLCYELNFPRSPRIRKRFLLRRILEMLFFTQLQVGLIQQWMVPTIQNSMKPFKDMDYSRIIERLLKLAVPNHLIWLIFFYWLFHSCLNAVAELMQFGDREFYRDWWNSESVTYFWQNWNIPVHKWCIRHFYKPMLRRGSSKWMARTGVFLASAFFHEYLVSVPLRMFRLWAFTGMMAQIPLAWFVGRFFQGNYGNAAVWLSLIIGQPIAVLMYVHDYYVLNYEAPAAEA
TEST_DESCRIPTION: In-vitro DGAT1 assay (hDGAT1 microsomes from Sf9 cells, 14C oleoyl CoA, triglyceride formation)
Type: biochemical
CONDITION_INFO: At 10 μM
READOUT_NAME: inhibition at 10 µM

Here is how some molecules turned out for inhibition at 10 µM.
| MOLECULE | READOUT_NAME | RECORDED_RESULT |
| --- | --- | --- |
| COC(=O)[C@@H](NC(=O)c1cc(-c2ccc(Nc3nc4ccc(F)cc4s3)cc2)no1)c1ccccc1 | inhibition at 10 µM | 0 to 50% |
| COC[C@H](NC(=O)c1cc(-c2cccc(Nc3nc4ccc(F)cc4s3)c2)no1)C(=O)O | inhibition at 10 µM | 0 to 50% |
| COC(=O)C(NC(=O)c1cc(-c2ccc(NC(=O)Nc3ccc(F)cc3F)cc2C)no1)C(C)C (stereo not drawn) | inhibition at 10 µM | 0 to 50% |
| Cc1cc(NC(=O)Nc2ccc(F)cc2F)ccc1-c1cc(C(=O)NC(CC(C)C)C(=O)O)on1 (stereo not drawn) | inhibition at 10 µM | 75 to 100% |

Request: I am curious: what inhibition at 10 µM value has been reported for `COC(=O)[C@H]1CSC(c2cc(-c3ccc(Nc4nc5ccc(F)cc5s4)cc3)no2)=N1` ?
Response: 0 to 50%

Request: Field request: inhibition at 10 µM | item: `COC[C@H](NC(=S)c1cc(-c2ccc(Nc3nc4ccc(F)cc4s3)cc2)no1)C(=O)OC`
Response: 0 to 50%

Request: So what's the measured inhibition at 10 µM for this one? Cc1cc(-c2cc(C(=O)NC(C(=O)O)C(C)C)on2)ccc1NC(=O)Nc1ccc(F)cc1F (stereo not drawn)
Response: 75 to 100%

Request: What inhibition at 10 µM value was documented for this molecule, `CC(C)[C@H](NC(=O)c1onc(-c2ccc(NC(=O)Nc3ccc(F)cc3)cc2)c1-c1ccccc1)C(=O)O` ?
Response: 0 to 50%

Request: Which inhibition at 10 µM is listed for `CC(C)[C@H](NC(=NO)c1cc(-c2ccc(Nc3nc4ccc(F)cc4s3)cc2)no1)C(=O)O` ?
Response: 50 to 75%

---

Consider the following molecules and their measured inhibition at 5 µM readings.
SYSTEM_TESTED: hDGAT1 (Homo sapiens, UniProt O75907)
Construct: host or cells: Sf9 insect cells (baculovirus); microsomal preparation
TEST_DESCRIPTION: In-vitro DGAT1 assay (hDGAT1 microsomes from Sf9 cells, 14C oleoyl CoA, triglyceride formation)
Format: biochemical
CONDITION_INFO: At 5 μM

Example entries and their recorded answers appear below.
| MOLECULE | inhibition at 5 µM |
| --- | --- |
| COC(=O)[C@@H](NC(=O)c1nc(-c2ccc(NS(=O)(=O)c3ccc(F)cc3F)cc2)no1)C(C)C [Example 350] | 0 to 50% |
| COC(=O)C(NC(=O)c1cc(-c2ccc(NC(=O)NS(=O)(=O)c3ccccc3C)cc2)no1)C(C)C (stereo not shown) [Example 263] | 0 to 50% |
| COc1ccc(NC(=O)Nc2ccc(-c3noc(C(=O)N[C@H](C(=O)O)C(C)C)n3)cc2)cc1 [Example 345] | 50 to 75% |

Request: Would you mind telling me what inhibition at 5 µM value was observed for Cc1ccc(NC(=O)Nc2ccc(-c3noc(C(=O)N[C@H](C(=O)O)C(C)C)n3)cc2)cc1 [Example 347] ?
Response: 50 to 75%
